attribute.measured: MIC (µg/mL)
State just the number; it will be interpreted in µg/mL.

Value (MIC, Escherichia coli Vogel) for record CCn1cc(C(=O)O)c(=O)c2c(F)c(F)c(N3CCC(CN)C3)c(F)c21 (centres unmarked) = 0.8

GET /values?item= CCNCC1CCN(c2c(F)c(F)c3c(=O)c(C(=O)O)cn(CC)c3c2F)C1 (centres unmarked) &system= Escherichia coli Vogel returns MIC: 0.4

Reported MIC (Escherichia coli Vogel) for entry CCn1cc(C(=O)O)c(=O)c2c(F)c(F)c(N3CCC(CNC)C3)c(F)c21 (centres unmarked) is 0.4

So the reported MIC for CCNCC1CCN(c2c(F)c(F)c3c(=O)c(C(=O)O)cn(C4CC4)c3c2F)C1 (centres unmarked) , on Escherichia coli Vogel, turned out to be 0.2

Query CCn1cc(C(=O)O)c(=O)c2c(F)c(F)c(N3CCC4(CCN(C)C4)C3)c(F)c21 (centres unmarked) on Escherichia coli Vogel; MIC returned: 0.8
